target: FGFR1 (UniProt P11362); experiment: phosphorylation enrichment, bacterial display (enrichment ratio); higher = better substrate or ligand; peptides without Tyr show the background;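 also: 11-residue human phosphosite peptides and single-mutation variants displayed on the E. coli surface, counted by deep sequencing, each peptide's frequency after selection divided by its frequency in the unselected input library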;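 also: frequency after pTyr selection over input frequency; kinase dosed for 20-30% of maximal phosphorylation in three min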
Sequence (P11362 whole entry, looked up): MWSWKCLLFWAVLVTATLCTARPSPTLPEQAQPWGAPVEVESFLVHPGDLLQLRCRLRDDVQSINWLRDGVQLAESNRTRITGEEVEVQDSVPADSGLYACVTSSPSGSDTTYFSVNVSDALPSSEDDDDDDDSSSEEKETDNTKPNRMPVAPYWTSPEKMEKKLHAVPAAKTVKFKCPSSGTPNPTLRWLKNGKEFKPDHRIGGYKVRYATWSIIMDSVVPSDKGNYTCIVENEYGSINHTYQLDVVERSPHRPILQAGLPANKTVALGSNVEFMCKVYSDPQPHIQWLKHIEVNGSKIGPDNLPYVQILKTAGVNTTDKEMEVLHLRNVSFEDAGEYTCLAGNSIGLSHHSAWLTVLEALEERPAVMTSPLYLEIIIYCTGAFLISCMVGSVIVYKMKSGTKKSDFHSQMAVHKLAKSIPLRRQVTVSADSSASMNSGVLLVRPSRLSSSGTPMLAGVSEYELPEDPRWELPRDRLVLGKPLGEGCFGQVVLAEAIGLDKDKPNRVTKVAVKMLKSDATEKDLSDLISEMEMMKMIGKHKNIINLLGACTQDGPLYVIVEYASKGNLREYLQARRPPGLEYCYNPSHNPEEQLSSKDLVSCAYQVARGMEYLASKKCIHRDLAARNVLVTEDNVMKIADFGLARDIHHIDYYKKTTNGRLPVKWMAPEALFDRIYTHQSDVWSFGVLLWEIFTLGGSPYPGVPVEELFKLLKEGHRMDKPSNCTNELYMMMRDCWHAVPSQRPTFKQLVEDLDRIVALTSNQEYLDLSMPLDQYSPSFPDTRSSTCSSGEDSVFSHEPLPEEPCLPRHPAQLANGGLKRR
Just so you know, the groups by phosphorylation enrichment go like this: 1 = under 0.5, 2 = from 0.5 up to 0.6, 3 = 0.6 and over

biopolymer sequence: PLLEYYWDIFT [CDAN1_Y713_R714W]
system tested: FGFR1 (UniProt P11362)
qualitative label: 3
--
biopolymer sequence: ERKQTYGSCRK [LACTB_Y473]
system tested: FGFR1 (UniProt P11362)
qualitative label: 1
--
biopolymer sequence: DFPGIYSGFDD [POLR1C_Y33_N32I_YF]
system tested: FGFR1 (UniProt P11362)
qualitative label: 2
--
biopolymer sequence: QKFMAYLSQGG [HLCS_Y236]
system tested: FGFR1 (UniProt P11362)
qualitative label: 1
--
biopolymer sequence: SSEYHCVGGFY [CTSC_Y347_Y347C]
system tested: FGFR1 (UniProt P11362)
qualitative label: 3
--
biopolymer sequence: GNLQENLTRHV [TGFBR2_Y336_Y336N]
system tested: FGFR1 (UniProt P11362)
qualitative label: 1
--
biopolymer sequence: TFGVLYKARNK [CDK2_Y19_V18L_YF]
system tested: FGFR1 (UniProt P11362)
qualitative label: 1
--
biopolymer sequence: SVVVPYEPHEV [TP53_Y220_P223H]
system tested: FGFR1 (UniProt P11362)
qualitative label: 2
--
biopolymer sequence: TLCLCYKETEE [ATP8B1_Y658_I661T]
system tested: FGFR1 (UniProt P11362)
qualitative label: 2
--
biopolymer sequence: HRFAAYFQQGD [GPI_Y351]
system tested: FGFR1 (UniProt P11362)
qualitative label: 3
--
biopolymer sequence: ASELGYQFQAI [UROD_Y133_V134Q]
system tested: FGFR1 (UniProt P11362)
qualitative label: 2
--
biopolymer sequence: VDGFVYKLHPS [GCK_Y413_S411F]
system tested: FGFR1 (UniProt P11362)
qualitative label: 1
--
biopolymer sequence: AVISVYDLVVV [PSEN1_Y256_A260V]
system tested: FGFR1 (UniProt P11362)
qualitative label: 3
--
biopolymer sequence: EAVKNYTDKRG [PBRM1_Y672]
system tested: FGFR1 (UniProt P11362)
qualitative label: 1
--
biopolymer sequence: LVMFTYAIFGM [SCN1A_Y1684_I1683T]
system tested: FGFR1 (UniProt P11362)
qualitative label: 3
--
biopolymer sequence: LDFPEYNGVDR [CASQ1_Y43_D44N]
system tested: FGFR1 (UniProt P11362)
qualitative label: 3
--
biopolymer sequence: VDASYCGGRGV [ANTXR2_Y381_Y381C]
system tested: FGFR1 (UniProt P11362)
qualitative label: 1
--
biopolymer sequence: ADEEEYEIIAA [FEStide_E_2014]
system tested: FGFR1 (UniProt P11362)
qualitative label: 3
--
biopolymer sequence: VNFGAYINDFN [GLB1_Y488_K493N_YF]
system tested: FGFR1 (UniProt P11362)
qualitative label: 1
--
biopolymer sequence: LTFHMYADPNF [SOS1_Y618_YF]
system tested: FGFR1 (UniProt P11362)
qualitative label: 3
--
biopolymer sequence: AVSEGYKDFRA [CDA_Y79]
system tested: FGFR1 (UniProt P11362)
qualitative label: 2
--
biopolymer sequence: RKKEEYKMAPY [F8_Y1990_L1994P]
system tested: FGFR1 (UniProt P11362)
qualitative label: 3
--
biopolymer sequence: KDFTIHNPNLL [VANGL1_Y290_Y290H]
system tested: FGFR1 (UniProt P11362)
qualitative label: 1
--
biopolymer sequence: PDDPNYSLVDD [PSTPIP2_Y323]
system tested: FGFR1 (UniProt P11362)
qualitative label: 3
--
biopolymer sequence: MSLDQYSPSFP [FGFR1_Y776_P772S]
system tested: FGFR1 (UniProt P11362)
qualitative label: 1
--
biopolymer sequence: GESKDYALHVG [SVIL_Y185]
system tested: FGFR1 (UniProt P11362)
qualitative label: 1
--
biopolymer sequence: RRIYSYRGHLW [VHL_Y112_H110Y]
system tested: FGFR1 (UniProt P11362)
qualitative label: 3
--
biopolymer sequence: CHSDDYVHISL [TSC1_Y406]
system tested: FGFR1 (UniProt P11362)
qualitative label: 3
--
biopolymer sequence: LFFFSYLLKNH [PTEN_Y180_V175L_YF]
system tested: FGFR1 (UniProt P11362)
qualitative label: 2
--
biopolymer sequence: TSPALYRLDLD [TRIL_Y352_A347T]
system tested: FGFR1 (UniProt P11362)
qualitative label: 2
--
biopolymer sequence: NRLTDYYELLL [BBS10_Y536_P539L]
system tested: FGFR1 (UniProt P11362)
qualitative label: 3
--
biopolymer sequence: QQTYTYDSGIH [JUP_Y22]
system tested: FGFR1 (UniProt P11362)
qualitative label: 3
